B1: HEEH_KT_rd6_0007 (parent)
chain: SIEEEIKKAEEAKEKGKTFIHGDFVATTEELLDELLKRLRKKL

- Variants of: B1
- assay.text: folding stability dG (cDNA display proteolysis); higher = more stable
- condition.notes: PBS, room temperature
If the reported folding stability dG equals or exceeds 5 kJ/mol, assign T. If not, assign F.

Worked set:
* T18H | F
* A26L | F

[Q] Is the recorded value of folding stability dG equal to or greater than 5 kJ/mol for this variant? `F19V`
[A] F

[Q] Now the same for `K17F`
[A] T

[Q] Now the same for `K7R`
[A] T

[Q] Now the same for `L36N`
[A] F
